# PROTOCOL TEXT: yeast display, Sf9 membrane polyspecificity reagent, FACS + sequencing; frameworks hold sequencing errors
MEASUREMENT NAME: polyreactivity (PSR sort gate)

Use these answered entries as a reference point.
The value of polyreactivity (PSR sort gate) measured for the sequence QVQLVESGGGLVQAGGSLRLSCAASGRTFPYNAMGWYRQAPGKERELVAAISGRGGSTYYADSVKGRFTISRDNAKNTVYLQMNSLKPEDTAVYYCAARLPWSYYRTQGYNYWGQGTQVTVSS turned out to be high polyreactivity

The value of polyreactivity (PSR sort gate) measured for the sequence QVQLVESGGGLVQAGGSLRLSCAASGNIFLSYAMGWYRQAPGKERDLVAGISASGGRTYYADSVKGRFTISRDNAKNTVYFQMNSLKPEDTALYYCNAGWGVVIRRYPTYDYWGQGTQVTVSS turned out to be high polyreactivity

The value of polyreactivity (PSR sort gate) measured for the sequence QVQLVESGGGLVQAGGSLRLSCAASGSIFGSNAMGWYRQSPGKERELVAAISRSGGSTYYADSVKGRFTISRDNAKNTVYLQMNSLKPEDTAVYYCAVVASRSHTETPEYDFWGQVTQVTVSS turned out to be low polyreactivity

The value of polyreactivity (PSR sort gate) measured for the sequence QVQLVESGGGLVQAGGSLRLSSAPSGRIFDHYAMGWYRQAHGKERELGAAITRSGGITYYADSVKGRFTISRDNAKNTVYLQMNSLKPEDTAVYYCAALSYRYTDKFDYWGQGTQVTVSS turned out to be low polyreactivity

The value of polyreactivity (PSR sort gate) measured for the sequence QVQLVESGGGLVQAGGSLRLSCAASGRIFIYYTMGWYRQAPGKERELVAAINSGGSTKYADSVKGRFTISRDNAKNTVYLQMNSLKPEDTAVYYCARRGGFSYYYWGQGTQVTVSS turned out to be high polyreactivity

---
The value of polyreactivity (PSR sort gate) measured for the sequence QDQLVESGGGLVQAVGSLRLSCAASGSTFWSYAMGWYRQAPGKERELVAAITDSGGSTYYADSVKGRFTISRDNAKNTVYLQMNSLKPEDTAVYYCAVDSRYTPPLRPLGPFDYWGQGTQVTVSS turned out to be low polyreactivity

The value of polyreactivity (PSR sort gate) measured for the sequence QVQLVDSGGGLVQAGGSLRLSCAASGGTFTAYTMGWYRQAPGKERELVAAITGDTSTNYADSVKGRFTISRDNAKNTVYLQMNSLKPVDTAVYYCAADVPRSYWRGYDYWGQGTQVTVSS turned out to be low polyreactivity

The value of polyreactivity (PSR sort gate) measured for the sequence QVQLVESGGGLVQAGGSLRLSCAASGSIFHYYAMGWYRQAPGKERELVAAISWSGGRTYYADSVKGRFTISRDNAKNTVYLQMNSLKPEDTAVYYCAADYDGSFNTPYLLDPYDYWGQGTQVTVSS turned out to be high polyreactivity

The value of polyreactivity (PSR sort gate) measured for the sequence QVQLVESGGGLVQAGGSLRLSCSSSGRIFLNSMGWYRQAPGKEREFVAAITRSADSTYYADSVKGRFTISRDNAKNTVYLQMNSLKPEDTAVYYCNKPFPYYPDGPNGYDYWGHGTQVTVSS turned out to be low polyreactivity

The value of polyreactivity (PSR sort gate) measured for the sequence QVQLVESGGGLVQAGGSLRLSCAASGRIFGAYTMGWYRQAPGKEREFVAAITQSGGSTYYADSVKGRFTISRDNAKNTVYLQMNSLKPEDTAVYYCAATRYVLVGWRYAVWYDYWGQGTQVTVSS turned out to be high polyreactivity

The value of polyreactivity (PSR sort gate) measured for the sequence QVQLVESGGGLVQAGGSLRLSCAPSGFTFSQYAMGWYRQAPGKEREFVAAISRSGGSTYYADSVKGRFTISRDNAKNTVYLQMNSLKPEDTAVYYCAAGLVATFSRRGRASYRYNYWGHGTQVTVSS turned out to be high polyreactivity

The value of polyreactivity (PSR sort gate) measured for the sequence QVQLVETGGGLVQAGGSLRLSCAASGRIFSVYAMGWYRQAPGKERDLVAGITSSGGSTYYADSVKGRFTISRDNAKNTVYLQMISLKPEDTAGYYCATRQVSRLYPYRYNYWGQGTQVTVSS turned out to be high polyreactivity

The value of polyreactivity (PSR sort gate) measured for the sequence QVQLVESGGGLVQAGGSLRLSCAASGSIFEPYAMGGYRQAPWTERELVAAIRVSGGSTYYADSVKGRFTISRDNAKNTVYLQMNSLKPEDTAVYYCGPDWWSRYYYWGQGTQVTVSS turned out to be high polyreactivity

The value of polyreactivity (PSR sort gate) measured for the sequence QVQLVESGGGLVQAGGSLRLSCAASGFIFADYTMGWYRQPPGKERELVAAITRSGDSTYYADSVKGRFTISRDNAKNTVYLQMNSLKPEDTAVYYCNAVNDWYYAYYGVTSFRSYDYWGQGTQVTVSS turned out to be low polyreactivity

The value of polyreactivity (PSR sort gate) measured for the sequence QVQLVESGGGLVQAGGSLRLSCAASGFIIAFDNAMGWYRQAPGKERELVAAISSGTTTHYADSVKGRFTISRDNAKNTVYLQMNSLKPEDTAVYYCAADSVKQVRYGNVGHDYWGQGTQVTVSS turned out to be low polyreactivity

----------
# PROTOCOL TEXT: yeast display, Sf9 membrane polyspecificity reagent, FACS + sequencing; frameworks hold sequencing errors
MEASUREMENT NAME: polyreactivity (PSR sort gate)

Use these answered entries as a reference point.
The value of polyreactivity (PSR sort gate) measured for the sequence QVQLVESGGGLVQAGGSLRLSCAASGSTFILNAMGWYRQAPGKERELVATISSSDTSTYYADSVKGRFTISRDNAKNTVYLLMNSLKPDDTAVYFCNADYYTTSYLQRVYHYGVEYDYWGQGTQVTLSS turned out to be low polyreactivity

The value of polyreactivity (PSR sort gate) measured for the sequence QVQLVESGGGLVQAGGSLRLSCAASGGIFSSYAMGWYRPAPGKERELVAAISSSSGSTYYADSVKGRFTISRDNAKNTVYLQMNSLKPEDTGVYYCAADSGHPDWYYYCGQGTQVTVSS turned out to be high polyreactivity

The value of polyreactivity (PSR sort gate) measured for the sequence QVQLVESGGGLVQAGGSLRLSCAASGSIFSKYVMGWYRQAPGKEMELVASITSGGRTNYADSVKGRFTISRDNAKNTVYLQMNSLKPEDTAVYYCAARALKTWYRSGVDYWGQGTQVTVSS turned out to be low polyreactivity

The value of polyreactivity (PSR sort gate) measured for the sequence QVQLVESGGGLVQAGGSLRLSCAASGSIVGSYAMGWYRQAPGKERELVAGIRSGGSTYYADSVKGRFTISRDNAKNTVYLQMNSLKPEDTAVYYCAGHEEYWGHGTQVTVSS turned out to be low polyreactivity

The value of polyreactivity (PSR sort gate) measured for the sequence QVQLVESGGGLVQAGGILRLSCAASGSIFLGNAMGWYRQAPGKERELVAVINSGGDTNYADSVKGRFTISRDNAKNTVYLQMNSLKPEDTAVYYCARRKGKWDSYGGWGQGTQETVSS turned out to be low polyreactivity

The value of polyreactivity (PSR sort gate) measured for the sequence QVQLVESGGGLVQAGGSLRLSCAASGNIFGHYAMGWYRQAPGKERELVAAISSRGGRTYYADSVKGRFTISRDNAKNTVYLQMNSLKPEDTAVYYCAHKTRQKFGYWGQGTQVTVSS turned out to be high polyreactivity

The value of polyreactivity (PSR sort gate) measured for the sequence QVQLVESGGGLVQAGGSLRLSCAASGFIFTYNAMGWYRQAPGKERELVAAMNSGGITYYADSVKGRFTISRDNAKNPVYLQMNSLKPEDTAVYYCAKRRQIGWITYDYCGQGTQVTVSS turned out to be low polyreactivity

The value of polyreactivity (PSR sort gate) measured for the sequence QVQLVESGGGLVQAGGSLRLSCAASGRTFYGYAMGWYRQAPGKERELVAVITRDGSTNYADSVKGRFTISRDNAKNTVYLQMNSLKPEDTAVYYCAAERLAYRVRWRYNQEDYWGQGTQVTVSS turned out to be high polyreactivity

The value of polyreactivity (PSR sort gate) measured for the sequence QVQLVESGGGLVQAGGSLRLSCAASGSTFNLYAMGWYRQAPGKERELVAAISGNGDRTYYADSVKGRFTISRDNAKNTVYLQMNSLKPEDTAVYYCAAKYYGWGQGTQVTVSS turned out to be high polyreactivity

The value of polyreactivity (PSR sort gate) measured for the sequence QVQHVESGGGIVQAGGSLRLSCAASGIIFTSNAMGWYRQAPGKERELVAAINWSGARTYYADSVKGRFTISRDNAKNTVYLQMNSLKPEDTAVYYCNVVTRAATYPDYSYDYWGQGTQVTVSS turned out to be high polyreactivity

---
The value of polyreactivity (PSR sort gate) measured for the sequence QVQLVESGGCLVQAGGSLRLSCAASGSIFPWYAMGWYRQAPGKERELVADISYSGSGTYYADSVKGRFAISRDNGKNNVYLQMTSLKPEDSAVYYCNAQRAEWYPVGRYEYWGQGSQVTVSS turned out to be low polyreactivity

The value of polyreactivity (PSR sort gate) measured for the sequence QVQLVESGGGLVQAGGSLRLSCAASGSTFRFNAMGWYRQAPGKERELVAAITGIGGITYYADSVKGRFTISRDNAKNTVYFQMNSLKPEDTAVYYCNAAGGYKPYLQDVDSRYDYWGQGTQVTVSS turned out to be high polyreactivity

The value of polyreactivity (PSR sort gate) measured for the sequence QVQLVESCGGLVQAGGSLRLSCAASGRIIRKYDMGWYRQAPGKERELVAAISGTGITYYADSVKGRFTISRDNAKNTVYLQMNSLKPEDTAVYYCARGSKPRAWSWAYPSATSIYDYLGQGTQVTVSS turned out to be low polyreactivity

The value of polyreactivity (PSR sort gate) measured for the sequence QVQLVESGGGLVQAGGSLRLSCAASGSTSVDYTMGWYRQAPGKESELVAAIDYNGDSTYYADSVKGRFTISRDNAKITVYLQMNRLKPEDTAVYYCAADVWTLDPDEYDYWGQGTQVTLSS turned out to be low polyreactivity

The value of polyreactivity (PSR sort gate) measured for the sequence QVQLVESGGGLVQAGGSLRLSCAPSGRIFGVYAMGWYRQAPGKERELVATIRSSGTRTNYADSVKGRFTISRDNAKNTVYLQMNSLKPEDTAVYYCAAGGRPYKLDFTRSDYWGQGTQVTVSS turned out to be low polyreactivity

From: the nanobody polyreactivity screen of Harvey et al. (2022)
